System: SW-620 colon
method-summary: NCI-60 one-dose screen, 48 h (100 = growth as untreated, 0 = no growth, -100 = all killed)
conditions-used: 10 µM
The panel holds about 83,000 compounds, 20% with a hit somewhere; the sample as a whole holds those more often.
Strictly below 50% in growth: yes. Otherwise: no.

>>> group_label("O=S(=O)(c1ccc(Cl)cc1)c1nc(-c2ccccc2)oc1S(=O)(=O)c1ccc(Cl)cc1")
"yes"
>>> group_label("COc1cc2c(cc1OC)CN(CCCCOc1cc(O)c3c(=O)cc(-c4ccccc4)oc3c1)CC2")
"no"
>>> group_label("Cc1noc2c(Cc3ccccc3)nn(CC(=O)N/N=C/c3ccc(Br)cc3)c(=O)c12")
"no"
>>> group_label("CN1CCN(c2ccc(C(=O)/C=C/c3ccc(C#N)cc3)cc2)CC1")
"yes"
>>> group_label("O=C(NO)c1ccc(Cn2ccc3c(NCc4ccccc4)ncnc32)cc1")
"yes"
>>> group_label("O=C(Cc1ccc2c(c1)CN(C1CCC(=O)NC1=O)C2=O)NCCc1ccccc1 (stereo not given)")
"yes"
>>> group_label("CC(=O)NS(=O)(=O)c1ccc(NC(=O)CSC2=NC(c3ccccc3)C(C(C)=O)=C(C)N2)cc1 (stereo not given)")
"no"
>>> group_label("CS(=O)(=O)Nc1ccc(-c2ccc3c(c2)ncn3-c2ccc(NC(=O)Nc3ccc(Cl)c(C(F)(F)F)c3)cc2)cc1")
"yes"
>>> group_label("COc1ccccc1NCc1ccc(CO)n1-c1ccc(C)cc1")
"no"
>>> group_label("COc1ccc2nc(Nc3cccc(NC(=O)c4ccc(CN5CCN(C)CC5)c(C(F)(F)F)c4)c3)ccc2c1")
"yes"
>>> group_label("O=c1[nH]c2ccccc2cc1CSc1ccc(Nc2nccc(-c3ccc4ccccc4c3)n2)cc1")
"yes"
>>> group_label("Cc1cc(C)cc(Oc2cccc(-c3c(C)nnn3C3CCN(CCN(C)C)CC3)n2)c1")
"yes"
>>> group_label("Nc1cccnc1/C=N/NC(=S)NCCNC(=O)c1ccc(-n2nc(-c3ccccc3O)nc2-c2ccccc2O)cc1")
"no"
>>> group_label("O=C(Cn1cc(CSc2nnc3oc4ccccc4n23)nn1)Nc1cccc(Cl)c1")
"no"
>>> group_label("CS(=O)(=O)Nc1ccc(-c2ccc3c(c2)ncn3-c2ccc(NC(=O)Nc3ccc(Br)cc3)cc2)cc1")
"yes"
>>> group_label("COC(=O)CC1CC1C1Cc2c(nc(N(C)S(C)(=O)=O)nc2C(C)C)-c2ccc(F)cc21 (stereo not given)")
"no"
>>> group_label("CCN(CC)CCOc1ccc(C(=C(C)c2ccccc2)c2ccc(OCCN(CC)CC)cc2)cc1")
"yes"
>>> group_label("CNC(=O)c1cccc(N2CCc3c2ccc(NC(=O)Nc2ccc(N4CCN(C)CC4)c(C(F)(F)F)c2)c3F)c1")
"yes"
>>> group_label("CC[C@@]1(O)C(=O)OCc2c1cc1n(c2=O)Cc2c-1nc1cc(F)c(C)c3c1c2[C@@H](N)CC3")
"yes"
